test system: specimen of rat aorta; assay: Vasorelaxation activity in a specimen of rat aorta: contraction caused by TEA and BaCl2; conditions: TEA (30-45 mM) and BaCl2 (0.3 mM) contraction, 3 μM, read-out: constriction inhibitory ratio
The threshold is inclusive: inhibition at 3 µM of exactly 70% counts as y; values below receive n.

> print(dat)
                                   compound  class
1  CC(C)(C)O/N=C(/c1cc(C(F)(F)F)ccc1O)c1ncccc1O [Compound 4]      y
2  CC(C)(C)C/N=C(/c1cc(Br)ccc1O)c1cccc[n+]1[O-] [Compound 105]      y
3  CC(C)(C)O/N=C(/c1cc(F)c(Cl)cc1O)c1cccc[n+]1[O-] [Compound 103]      n
4  CC(C)O/N=C(/c1cc(Br)ccc1O)c1ncccc1O [Compound 19]      y
5  CC(C)(C)ON=C(c1cc(Cl)ccc1O)c1ncccc1O [Compound 14]      y
6  CC(C)(C)O/N=C(/c1cc(F)ccc1O)c1ncccc1O [Compound 8]      y
7  CC(C)(C)O/N=C(/c1cc(Br)c(Cl)cc1O)c1cccc[n+]1[O-] [Compound 101]      n
